Origin of the recorded values: patent US4546079A

Experiment: physchem
Details: dimethylformamide, organic solvent or mixture
*1 amine or outer side, *2 acyl side, *3 side chain or, on linkers, in order; H or OH if unused. Where a SMILES comes first, the peptide text is derived from it. [ ]: non-standard residue; d: D form. ξ: configuration not given here. X1 = Cn1c(=NC(N)=O)ccn(C2SC(C(O)C(N[*:1])C(=O)[*:2])C(O)C2O)c1=O; ξOrn(N(OH)Ac) = CC(=O)N(O)CCCC(N)C(=O)O; ξS = NC(CO)C(=O)O
MEASURED PARAMETER: solubility

Task item: Value lookup for solubility; key = CC(=O)N(O)CCCC(N)C(=O)NC(CCCN(O)C(C)=O)C(=O)NC(CCCN(O)C(C)=O)C(=O)NC(CO)C(=O)NC(C(=O)O)C(O)C1SC(n2ccc(=NC(N)=O)n(C)c2=O)C(O)C1O (stereo not shown) [BAY i 3265 component B] (H-[ξOrn(N(OH)Ac)][ξOrn(N(OH)Ac)][ξOrn(N(OH)Ac)][ξS][X1]-OH)
Reply: < 10000 µg/mL

====

Assay: physchem
Conditions: methanol, organic solvent or mixture
*1 amine or outer side, *2 acyl side, *3 side chain or, on linkers, in order; H or OH if unused. Where a SMILES comes first, the peptide text is derived from it. [ ]: non-standard residue; d: D form. ξ: configuration not given here. X1 = Cn1c(=NC(N)=O)ccn(C2SC(C(O)C(N[*:1])C(=O)[*:2])C(O)C2O)c1=O; ξOrn(N(OH)Ac) = CC(=O)N(O)CCCC(N)C(=O)O; ξS = NC(CO)C(=O)O
MEASURED PARAMETER: solubility

Task item: Value lookup for solubility; key = CC(=O)N(O)CCCC(N)C(=O)NC(CCCN(O)C(C)=O)C(=O)NC(CCCN(O)C(C)=O)C(=O)NC(CO)C(=O)NC(C(=O)O)C(O)C1SC(n2ccc(=NC(N)=O)n(C)c2=O)C(O)C1O (stereo not shown) [BAY i 3265 component B] (H-[ξOrn(N(OH)Ac)][ξOrn(N(OH)Ac)][ξOrn(N(OH)Ac)][ξS][X1]-OH)
Reply: < 10000 µg/mL

====

Assay: physchem
Conditions: ethyl acetate, organic solvent or mixture
*1 amine or outer side, *2 acyl side, *3 side chain or, on linkers, in order; H or OH if unused. Where a SMILES comes first, the peptide text is derived from it. [ ]: non-standard residue; d: D form. ξ: configuration not given here. X1 = Cn1c(=NC(N)=O)ccn(C2SC(C(O)C(N[*:1])C(=O)[*:2])C(O)C2O)c1=O; ξOrn(N(OH)Ac) = CC(=O)N(O)CCCC(N)C(=O)O; ξS = NC(CO)C(=O)O
MEASURED PARAMETER: solubility

Task item: Value lookup for solubility; key = CC(=O)N(O)CCCC(N)C(=O)NC(CCCN(O)C(C)=O)C(=O)NC(CCCN(O)C(C)=O)C(=O)NC(CO)C(=O)NC(C(=O)O)C(O)C1SC(n2ccc(=NC(N)=O)n(C)c2=O)C(O)C1O (stereo not shown) [BAY i 3265 component B] (H-[ξOrn(N(OH)Ac)][ξOrn(N(OH)Ac)][ξOrn(N(OH)Ac)][ξS][X1]-OH)
Reply: < 100 µg/mL

====

Assay: physchem
Conditions: dimethylsulphoxide, organic solvent or mixture
*1 amine or outer side, *2 acyl side, *3 side chain or, on linkers, in order; H or OH if unused. Where a SMILES comes first, the peptide text is derived from it. [ ]: non-standard residue; d: D form. ξ: configuration not given here. X1 = Cn1c(=NC(N)=O)ccn(C2SC(C(O)C(N[*:1])C(=O)[*:2])C(O)C2O)c1=O; ξOrn(N(OH)Ac) = CC(=O)N(O)CCCC(N)C(=O)O; ξS = NC(CO)C(=O)O
MEASURED PARAMETER: solubility

Task item: Value lookup for solubility; key = CC(=O)N(O)CCCC(N)C(=O)NC(CCCN(O)C(C)=O)C(=O)NC(CCCN(O)C(C)=O)C(=O)NC(CO)C(=O)NC(C(=O)O)C(O)C1SC(n2ccc(=NC(N)=O)n(C)c2=O)C(O)C1O (stereo not shown) [BAY i 3265 component B] (H-[ξOrn(N(OH)Ac)][ξOrn(N(OH)Ac)][ξOrn(N(OH)Ac)][ξS][X1]-OH)
Reply: < 10000 µg/mL
